- Tested on: Escherichia coli TOP10
- METHOD_DESCRIPTION: shrunken log2 fold change of peptide-encoding DNA abundance (4.5 h post-induction vs induction); higher = less antimicrobial activity (less host growth inhibition)
- CONDITION_NOTES: time post-induction: 4.5 h; library: site-saturation at positions 5, 18, 19, 20
Field: shrunken log2 fold change. Provide a value for each of the sequences that follow.

# get_value(readout= shrunken log2 fold change, system= Escherichia coli TOP10) for `RRIRYRPPRLPRPRPRPHWCPRP`
-0.0867

# get_value(readout= shrunken log2 fold change, system= Escherichia coli TOP10) for `RRIRCRPPRLPRPRPRPGVGPRP`
0.455

# get_value(readout= shrunken log2 fold change, system= Escherichia coli TOP10) for `RRIRFRPPRLPRPRPRPINCPRP`
-0.257

# get_value(readout= shrunken log2 fold change, system= Escherichia coli TOP10) for `RRIRLRPPRLPRPRPRPCSRPRP`
0.06

# get_value(readout= shrunken log2 fold change, system= Escherichia coli TOP10) for `RRIRDRPPRLPRPRPRPERRPRP`
0.0137

# get_value(readout= shrunken log2 fold change, system= Escherichia coli TOP10) for `RRIRLRPPRLPRPRPRPPRQPRP`
0.688

# get_value(readout= shrunken log2 fold change, system= Escherichia coli TOP10) for `RRIRQRPPRLPRPRPRPSHNPRP`
0.547

# get_value(readout= shrunken log2 fold change, system= Escherichia coli TOP10) for `RRIRHRPPRLPRPRPRPHWVPRP`
-0.00951

# get_value(readout= shrunken log2 fold change, system= Escherichia coli TOP10) for `RRIRHRPPRLPRPRPRPEWGPRP`
0.209

# get_value(readout= shrunken log2 fold change, system= Escherichia coli TOP10) for `RRIRCRPPRLPRPRPRPCEIPRP`
0.0656

# get_value(readout= shrunken log2 fold change, system= Escherichia coli TOP10) for `RRIRRRPPRLPRPRPRPKTQPRP`
0.273

# get_value(readout= shrunken log2 fold change, system= Escherichia coli TOP10) for `RRIRERPPRLPRPRPRPRDWPRP`
0.311

# get_value(readout= shrunken log2 fold change, system= Escherichia coli TOP10) for `RRIRPRPPRLPRPRPRPENIPRP`
-0.102

# get_value(readout= shrunken log2 fold change, system= Escherichia coli TOP10) for `RRIRCRPPRLPRPRPRPYQLPRP`
-0.119

# get_value(readout= shrunken log2 fold change, system= Escherichia coli TOP10) for `RRIRQRPPRLPRPRPRPAIPPRP`;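 note: peptides expressed intracellularly from a pBAD plasmid library in pooled LB shake-flask culture, induced with 0.3% L-arabinose, DNA abundance read by NGS, three biological replicates, DESeq2 with apeglm shrinkage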
0.0602
